# assay_remarks: Aqueous solubility of the compound by nephlometric method
# Assay type: physicochemical

{"columns": ["molecule", "measurement_unit", "qualifier", "solubility kinetic"],
 "data": [
  ["CC1CN(c2nc(SCCc3ccc(N)cc3)c(C#N)c3c2COC(C)(C)C3)CC(C)O1 (centres undefined)", "µM", "=", 12],
  ["CC1CN(c2nc(SCCc3ccc(NC(=O)OC(C)(C)C)cc3)c(C#N)c3c2COC(C)(C)C3)CC(C)O1 (centres undefined)", "µM", "=", 100],
  ["COCCN1CCN(c2nc(SCCc3ccc(OC)c(OC)c3)c(C#N)c3c2COC(C)(C)C3)CC1", "µM", "≥", 100],
  ["COCCN1CCN(c2nc(SCCc3ccccc3)c(C#N)c3c2COC(C)(C)C3)CC1", "µM", "=", 50],
  ["COc1ccc(CCSc2nc(N3CCOCC3)c3c(c2C#N)CC(C)(C)OC3)cc1OC", "µM", "=", 25],
  ["COCCN1CCN(c2nc(SCCc3ccc(OC)cc3)c(C#N)c3c2COC(C)(C)C3)CC1", "µM", "≥", 100],
  ["COCCN1CCN(c2nc(SCCc3ccccn3)c(C#N)c3c2COC(C)(C)C3)CC1", "µM", "≥", 100],
  ["CC1CN(c2nc(SCCc3cccnc3)c(C#N)c3c2COC(C)(C)C3)CC(C)O1 (centres undefined)", "µM", "≥", 100],
  ["CC1CN(c2nc(SCCc3ccc(NC(=O)C(F)(F)F)cc3)c(C#N)c3c2COC(C)(C)C3)CC(C)O1 (centres undefined)", "µM", "=", 12.5]
]}

###

// CC50 lookup, one value per entry
# System: HeLa
# assay_remarks: Cytotoxicity against human HeLa cells
# Assay type: cell-based
parameter_measured: CC50 (µM)

{"columns": ["molecule", "qualifier", "quantitative_readout"],
 "data": [
  ["CC1(C)Cc2c(C#N)c(SCCc3ccc(S(=O)(=O)O)cc3)nc(N3CCOCC3)c2CO1", "=", 17.2],
  ["CC1(C)Cc2c(C#N)c(SCCc3ccccn3)nc(N3CCOCC3)c2CO1", "=", 78.1],
  ["COc1cccc(CCSc2nc(N3CC(C)OC(C)C3)c3c(c2C#N)CC(C)(C)OC3)c1 (stereo not given)", ">", 100],
  ["COc1ccc(CCSc2nc(N3CCOCC3)c3c(c2C#N)CC(C)(C)OC3)cc1OC", "=", 69.4],
  ["COc1ccc(CCSc2nc(N3CCOCC3)c3c(c2C#N)CC(C)(C)OC3)cc1", ">", 100],
  ["CN1CCCN(c2nc(SCCc3ccccc3)c(C#N)c3c2COC(C)(C)C3)CC1", "=", 16.4],
  ["CC1(C)Cc2c(C#N)c(SCCc3cccnc3)nc(N3CCOCC3)c2CO1", ">", 100],
  ["CC(=O)Oc1cccc(CCSc2nc(N3CCOCC3)c3c(c2C#N)CC(C)(C)OC3)c1", "=", 48.3],
  ["CC1(C)Cc2c(C#N)c(SCCc3c[nH]c4ccccc34)nc(N3CCOCC3)c2CO1", "=", 44.8],
  ["CC1CN(c2nc(SCCc3ccc(NC(=O)C(C)(C)C)cc3)c(C#N)c3c2COC(C)(C)C3)CC(C)O1 (stereo not given)", ">", 100],
  ["CCN(CC)c1nc(SCCc2ccccc2)c(C#N)c2c1COC(C)(C)C2", "=", 38.2],
  ["CC1(C)Cc2c(C#N)c(SCCc3ccccc3F)nc(N3CCOCC3)c2CO1", ">", 100],
  ["CC1(C)Cc2c(C#N)c(SCCc3nnn[nH]3)nc(N3CCOCC3)c2CO1", "=", 30.2],
  ["COc1cccc(CCSc2nc(N3CCOCC3)c3c(c2C#N)CC(C)(C)OC3)c1", ">", 100],
  ["COCCN1CCN(c2nc(SCCc3cccnc3)c(C#N)c3c2COC(C)(C)C3)CC1", ">", 100],
  ["CC1(C)Cc2c(C#N)c(SCCc3coc4ccccc34)nc(N3CCOCC3)c2CO1", ">", 100],
  ["CC1(C)Cc2c(C#N)c(SCCc3ccccc3)nc(N3CCSCC3)c2CO1", ">", 100],
  ["COCCN1CCN(c2nc(SCCOc3ccccc3)c(C#N)c3c2COC(C)(C)C3)CC1", "=", 33.9],
  ["CC1CN(c2nc(SCCc3cccc(F)c3)c(C#N)c3c2COC(C)(C)C3)CC(C)O1 (stereo not given)", ">", 100],
  ["COCCN1CCN(c2nc(SCCc3cccc(F)c3)c(C#N)c3c2COC(C)(C)C3)CC1", "=", 37.9]
]}

###

// inhibition (INH) lookup, one value per entry
# assay_remarks: Inhibition of mouse liver microsome CYP3A4 at 3 uM after 10 mins by luminescence assay
# Assay type: ADME
# condition_label: microsomes
parameter_measured: inhibition (INH) (%)

{"columns": ["molecule", "quantitative_readout"],
 "data": [
  ["COCCN1CCN(c2nc(SCCc3ccccc3)c(C#N)c3c2COC(C)(C)C3)CC1", 18],
  ["COCCN1CCN(c2nc(SCCc3ccc(OC)cc3)c(C#N)c3c2COC(C)(C)C3)CC1", 42],
  ["CC1CN(c2nc(SCCc3ccc(N)cc3)c(C#N)c3c2COC(C)(C)C3)CC(C)O1 (stereo not drawn)", 59]
]}

###

# Test system: HeLa
# assay_remarks: Cytotoxicity against human HeLa cells
# Format: cell-based
Cut-off 60 µM on CC50: below means fulfilled, at or above means not fulfilled.

{"columns": ["compound", "assigned_category"],
 "data": [
  ["COCCN1CCN(c2nc(SCCc3cccc(OC)c3)c(C#N)c3c2COC(C)(C)C3)CC1", "fulfilled"],
  ["CN(C)c1nc(SCCc2ccccc2)c(C#N)c2c1COC(C)(C)C2", "fulfilled"],
  ["COCCN1CCN(c2nc(SCCc3ccccc3)c(C#N)c3c2COC(C)(C)C3)CC1", "fulfilled"],
  ["CC1CN(c2nc(SCCc3ccc(NS(C)(=O)=O)cc3)c(C#N)c3c2COC(C)(C)C3)CC(C)O1 (centres undefined)", "not fulfilled"],
  ["CN1CCN(c2nc(SCCc3ccccc3)c(C#N)c3c2COC(C)(C)C3)CC1", "fulfilled"],
  ["COCCN1CCN(c2nc(SCCc3ccccc3F)c(C#N)c3c2COC(C)(C)C3)CC1", "fulfilled"],
  ["CC1(C)Cc2c(C#N)c(SCCc3cccc(Cl)c3)nc(N3CCOCC3)c2CO1", "not fulfilled"],
  ["CC1CN(c2nc(SCCc3ccc(NC(=O)OC(C)(C)C)cc3)c(C#N)c3c2COC(C)(C)C3)CC(C)O1 (centres undefined)", "not fulfilled"],
  ["CC1CN(c2nc(SCCc3ccc(NC(=O)C(F)(F)F)cc3)c(C#N)c3c2COC(C)(C)C3)CC(C)O1 (centres undefined)", "not fulfilled"],
  ["CC1CN(c2nc(SCCc3cccnc3)c(C#N)c3c2COC(C)(C)C3)CC(C)O1 (centres undefined)", "fulfilled"],
  ["CC1(C)Cc2c(C#N)c(SCCc3ccccc3)nc(N3CCCC3)c2CO1", "fulfilled"],
  ["CC1(C)Cc2c(C#N)c(SCCc3cccc(C#N)c3)nc(N3CCOCC3)c2CO1", "not fulfilled"],
  ["COCCN1CCN(c2nc(SCCc3ccccn3)c(C#N)c3c2COC(C)(C)C3)CC1", "not fulfilled"],
  ["CC1(C)Cc2c(C#N)c(SCCc3cccc(-c4nnn[nH]4)c3)nc(N3CCOCC3)c2CO1", "fulfilled"],
  ["CC1CN(c2nc(SCCc3ccccc3)c(C#N)c3c2COC(C)(C)C3)CC(C)O1 (centres undefined)", "not fulfilled"],
  ["C=CC(=O)Nc1ccc(CCSc2nc(N3CC(C)OC(C)C3)c3c(c2C#N)CC(C)(C)OC3)cc1 (centres undefined)", "not fulfilled"],
  ["CC1(C)Cc2c(C#N)c(SCCc3ccccc3)nc(N3CCCOCC3)c2CO1", "not fulfilled"]
]}

###

// INH lookup, one value per entry
# Tested on: Escherichia coli
# assay_remarks: Inhibition of multidrug resistance efflux pump in Escherichia coli assessed as concentration required to reduce levofloxacin MIC by 4-fold by checkerboard assay
parameter_measured: INH (µM)

{"columns": ["molecule", "measurement_unit", "qualifier", "quantitative_readout"],
 "data": [
  ["COCCN1CCN(c2nc(SCCc3cccc(Br)c3)c(C#N)c3c2COC(C)(C)C3)CC1", "µM", "=", 12.5],
  ["COCCN1CCN(c2nc(SCCc3ccncc3)c(C#N)c3c2COC(C)(C)C3)CC1", "µM", "=", 6.3],
  ["CC1(C)Cc2c(C#N)c(SCCc3ccccn3)nc(N3CCOCC3)c2CO1", "µM", "=", 50],
  ["CC1(C)Cc2c(C#N)c(SCCc3ccc(F)cc3)nc(N3CCOCC3)c2CO1", "µM", "=", 6.3],
  ["CC1(C)Cc2c(C#N)c(SCCc3cccc(-c4nnn[nH]4)c3)nc(N3CCOCC3)c2CO1", "µM", ">", 100],
  ["CC1CN(c2nc(SCCc3ccc(NC(=O)C(F)(F)F)cc3)c(C#N)c3c2COC(C)(C)C3)CC(C)O1 (stereo not given)", "µM", "=", 1.6],
  ["CC1(C)Cc2c(c(N3CCOCC3)nc(SCCc3ccccc3)c2C(=N)NO)CO1", "µM", ">", 100],
  ["CC1(C)Cc2c(c(N3CCOCC3)nc(SCCc3ccccc3)c2C(N)=O)CO1", "µM", ">", 100],
  ["COCCN1CCN(c2nc(SCCOc3ccccc3)c(C#N)c3c2COC(C)(C)C3)CC1", "µM", ">", 100],
  ["CC1CN(c2nc(SCCc3ccc(N)cc3)c(C#N)c3c2COC(C)(C)C3)CC(C)O1 (stereo not given)", "µM", "=", 0.8],
  ["CC1(C)Cc2c(C#N)c(SCCc3ccc(S(=O)(=O)O)cc3)nc(N3CCOCC3)c2CO1", "µM", ">", 100],
  ["COCCN1CCN(c2nc(SCCc3ccccc3)c(C#N)c3c2COC(C)(C)C3)CC1", "µM", "=", 6.3],
  ["CN1CCCN(c2nc(SCCc3ccccc3)c(C#N)c3c2COC(C)(C)C3)CC1", "µM", "=", 12.5],
  ["CC1CN(c2nc(SCCc3ccc(NC(=O)OC(C)(C)C)cc3)c(C#N)c3c2COC(C)(C)C3)CC(C)O1 (stereo not given)", "µM", "=", 0.8],
  ["CN(C)c1nc(SCCc2ccccc2)c(C#N)c2c1COC(C)(C)C2", "µM", ">", 100],
  ["CC1CN(c2nc(SCCc3ccc(NC(=N)N)cc3)c(C#N)c3c2COC(C)(C)C3)CC(C)O1 (stereo not given)", "µM", "=", 0.8],
  ["CC1(C)Cc2c(C#N)c(SCC(O)c3ccccc3)nc(N3CCOCC3)c2CO1 (stereo not given)", "µM", ">", 100],
  ["CC1(C)Cc2c(C#N)c(SCCc3coc4ccccc34)nc(N3CCOCC3)c2CO1", "µM", ">", 100],
  ["CC1(C)Cc2c(C#N)c(SCCc3ccccc3)nc(N3CCCNCC3)c2CO1", "µM", "=", 12.5],
  ["CCN(CC)c1nc(SCCc2ccccc2)c(C#N)c2c1COC(C)(C)C2", "µM", ">", 100]
]}
